For each entry below, report its abundance fitness value.
B1: Retinoic acid receptor beta, residues 85 to 161; numbered along this chain, P10826 (parent)
chain: YKPCFVCQDKSSGYHYGVSACEGCKGFFRRSIQKNMIYTCHRDKNCVINKVTRNRCQYCRLQKCFEVGMSKESVRND

variants of: B1; assay: abundance fitness (aPCA) (normalised: wild type 0, dead -1); higher = more abundant; growth selection in yeast, the domain comes from the species named; settings: Homo sapiens
Give bare numbers.

mutation annotation	abundance fitness
Q8W	-0.083
F5Y	-0.043
D9H	-0.543

Batch: abundance fitness for all items listed.
1. Q33H
2. N45A

1. -0.175
2. 0.068

// data source = the Human Domainome abundance scans (Beltran et al. 2025)
